System: MDA-MB-435 melanoma
Assay: NCI-60 one-dose screen, 48 h (100 = growth as untreated, 0 = no growth, -100 = all killed)
Settings: 10 µM
Compounds without any hit were thinned out: in the full panel of roughly 83,000, 20% have a hit.

compound | units.label | growth
O=C1NC(=NC23CC4CC(CC(C4)C2)C3)N/C1=C\c1ccc2ncoc2c1 | % | 16.8
O=C(CSc1nnc(-c2ccc3nc(-c4ccc(Cl)cc4)[nH]c3c2)o1)Nc1ccc(Cl)cc1 | % | -65.8
CN1CCCN(Cc2ccc(C(=O)Nc3cccc(Nc4ccc5cc(O)ccc5n4)c3)cc2C(F)(F)F)CC1 | % | 37.9
CC(=O)c1ccc(Nc2nc(SCCC(C)C)nc(-c3ccc(F)cc3)c2C#N)cc1 | % | 73.8
COc1ccc(NC(=O)Nc2ccc(OCC(=O)N=Nc3c(O)[nH]c4ccc([N+](=O)[O-])cc34)cc2)cc1 | % | 106
COc1ccc2[nH]cc(/C=N/Nc3ccc(Br)cn3)c2c1 | % | 13.8
CN1C(=O)N(C)C2SC(N/N=C/c3cccs3)=NC21 (centres undefined) | % | -37.6
O=c1oc2ccc(-c3ccc(F)cc3F)cc2c(=O)n1-c1ccc(F)c(Cl)c1 | % | -17.7
C#CCNC(=O)CCC(=O)OC[C@]12CC[C@@H](C(=C)C)[C@@H]1C1CC[C@@H]3[C@@]4(C)CCCNC(C)(C)[C@@H]4CC[C@@]3(C)[C@]1(C)CC2 (some centres undefined) | % | -32.2

###

System: 786-0 renal
Test: NCI-60 one-dose screen, 48 h
Conditions: 10 µM
About 83,000 compounds went through this panel and 20% of them were active in at least one assay; those are over-represented in the sample as a whole. Calls of active or inactive are those of the source. Rule for the calls: active = growth percent below 10; inactive = the rest.
Possible outcomes: active, inactive

molecule.smiles | classification
C/C(=C\c1ccc(O)cc1O)c1ccc2ccc(O)cc2[o+]1 | inactive
O=C(CSc1nnc(-c2c[nH]c3ccccc23)n1-c1ccccc1)Nc1ccc(C(=O)/C=C/c2cccc([N+](=O)[O-])c2)cc1 | inactive
CONC[C@]1(C)C=C2C(=O)[C@](C)(O)C3(CC3)C(C)=C2[C@H]1O | active
CC(=O)c1cc(C(=O)c2ccc3c(c2)NC(=O)CO3)n2ccc3ccccc3c12 | inactive
O=c1nc(-c2ccccc2)cc(-c2cc3ccccc3nc2Cl)[nH]1 | active

###

Measured growth, listed per entry.
System: MDA-MB-468 breast
Experiment: NCI-60 one-dose screen, 48 h (100 = growth as untreated, 0 = no growth, -100 = all killed)
Settings: 10 µM
The panel holds about 83,000 compounds, 20% with a hit somewhere; the sample as a whole holds those more often.

compound | units.label | growth
O=[N+]([O-])c1ccc(-c2nc(-c3ccccc3)c(-c3ccccc3)n2-c2ccc(S(=O)(=O)Nc3ncccn3)cc2)cc1 | % | 40
CN1C(=O)N(C)C2SC(N/N=C/c3ccccc3)=NC21 (stereo not given) | % | 10
CS(=O)(=O)Nc1ccc(-c2ccc3c(c2)ncn3-c2ccc(NC(=O)Nc3ccc(Br)cc3)cc2)cc1 | % | -10.7
CC[C@]12C=CCN3CC[C@@]4(c5cc(C#CCNc6ccc(C)c(Nc7nccc(-c8cccnc8)n7)c6)c(OC)cc5N(C)[C@H]4[C@@](O)(C(=O)OC)[C@@H]1OC(C)=O)C32 (stereo not given in full) | % | 1.75
COC1=C[C@@]23CCC(=O)N2CCc2cc4c(cc2[C@H]3[C@H]1OC(=O)C(C)(C)O)OCO4 | % | 91.5
N[C@@H](CSSC[C@H](N)C(=O)Nc1ccc(OCC2CCCC2)cc1)C(=O)Nc1ccc(OCC2CCCC2)cc1 | % | -93.4
CC(=O)c1ccc(NC(=O)NCn2c(=O)[nH]c3ccccc3c2=O)cc1 | % | 92
CSc1nc(-c2cccc(C)c2)c2cc(-c3ccccc3)n(C)c2n1 | % | -29.2
O=C(NCCCCC(c1ccc(F)cc1)c1ccc(F)cc1)NCCCc1cccnc1 | % | -3.04
Cc1ccc(NC(=O)NCn2c(=O)[nH]c3ccccc3c2=O)cc1 | % | 84.1
O=C1NC(=NC23CC4CC(CC(C4)C2)C3)N/C1=C\c1ccc2ncsc2c1 | % | -48.2
CCN1CCN(c2ccc(NC(=O)Nc3ccc4c(c3F)CCN4c3ccnc(C(=O)NC)c3)cc2C(F)(F)F)CC1 | % | 98.9
C=C(C)[C@@H]1CC[C@]2(C(=O)OC)CC[C@]3(C)[C@H](CC[C@@H]4[C@@]5(C)CC[C@H](N)C(C)(C)[C@@H]5CC[C@]43C)[C@@H]12 | % | -97.2
COc1cccc2nc(Nc3cccc(NC(=O)c4ccc(CN5CCCN(C)CC5)c(C(F)(F)F)c4)c3)ccc12 | % | -87.9
O=C(NO)c1ccc(CNC(=O)[C@H]2Cc3c([nH]c4ccccc34)[C@H](c3ccccc3)N2)cc1 | % | -6.19
Cc1cc(=O)oc2cc(OCCCCOc3ccc(/C=C/C(=O)Nc4ccc(F)c(Cl)c4)cc3)ccc12 | % | 120
O=C(/C=C/Nc1ccccc1)c1ccc2c(c1)Nc1ccccc1S2 | % | 61.5
COc1ccc2[nH]c(=O)c(CSc3cccc(N)c3)cc2c1 | % | 34.7
COc1cc2c3c(n(CCCN4CCOCC4)c(=O)c2cc1OC)-c1nc2c(cc1C3=O)OCO2 | % | -29
O=C(CSc1nnc(-c2c[nH]c3ccccc23)n1-c1ccccc1)Nc1ccc(C(=O)/C=C/c2ccc(Br)cc2)cc1 | % | 71.1
CN1CCN(c2ccc(C(=O)/C=C/c3ccc(OC(F)F)cc3)cc2)CC1 | % | -60.7
O=C(N=Nc1c(O)[nH]c2ccc(Br)cc12)c1ccc2nc(-c3ccccc3)[nH]c2c1 | % | -85.8
Cc1ccc(-c2cc(C(=O)N=Nc3c(O)[nH]c4ccccc34)c3ccccc3n2)cc1 | % | 26.3
COc1cc2c(c(OC)c1OC)C(=O)CC(c1cccc(NC(=O)c3cccc(N)c3)c1)O2 (stereo not given) | % | 65.6
COc1ccc(C=CC(=O)c2ccc(-n3c(C)nc4c(cnn4-c4ccccc4)c3=O)cc2)cc1 | % | 11.3
CN1CCN(c2ccc(C(=O)/C=C/c3ccc(C#N)cc3)cc2)CC1 | % | 26.5
COc1ccc(-c2nc(S(=O)(=O)c3ccc(C)cc3)c(S(=O)(=O)CC(=O)N(C)Cc3ccccc3)o2)cc1 | % | -38.8
CCCn1c(=O)c2[nH]c(-c3ccc(OCc4nc5ccc(C#N)cc5[nH]4)cc3)nc2n(CCC)c1=O | % | 65.9
CN1CCCN(Cc2ccc(C(=O)Nc3cccc(Nc4ccc5c(O)cccc5n4)c3)cc2C(F)(F)F)CC1 | % | -94.5
CCOC(=O)CNC(=O)CN(Cc1ccccc1)C(=O)[C@@]1(C)CCC[C@]2(C)[C@H]3CC4C(C(C)C)=C[C@]3(CC[C@H]21)[C@@H]1C(=O)CCC(=O)[C@H]41 | % | 3.12
Nc1nnc(-c2c[nH]c3ncccc23)c(-c2c[nH]c3ccc(Br)cc23)n1 | % | 50.4
Cc1cc(C(F)(F)F)ccc1C(=O)Nc1sc2c(c1C#N)CCC(=O)C2 | % | -44.4
CN1CCN(c2ccc(Nc3nc(NCCNC(=O)c4ccc(C(F)(F)F)cc4)c4sccc4n3)cc2)CC1 | % | 5.65
C=C1CCC2C3(C)COC(c4ccccc4F)OC3CCC2(C)C1C/C=C1/C(=O)OCC1O (stereo not given) | % | -22.6
O=C(CSc1nnc(-c2c[nH]c3ccccc23)n1-c1ccccc1)c1ccc(Br)cc1 | % | 22

Values were extracted from PubChem BioAssay (NCI).
